Hi there, I'd appreciate the recorded Kd for every entry that follows.
- studySystem: T1, rat alpha CGRP (SEQ ID NO: 82) (rat)
- T1 construct: also called rat αCGRP; rat α-CGRP
- T1 peptide: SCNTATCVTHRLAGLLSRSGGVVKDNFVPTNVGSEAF
- protocolText: SPR, 37 C, mutein captured, CGRP analyte
Phrase the answer as number then unit, nothing more needed.

INPUT: Data request, read-out Kd, for lipocalin mutein SEQ ID NO: 12 (designed binder, biotinylated by NHS chemistry for capture in SPR) QDSTSDLIPAPPLSKVPLQQNFQDNQFHGKWYVVGWAGNTLLREDKDPPKMQATIYELKEDRSYNVTWVYFSEKKCNYHIETSVPGSQPGEFTLGTIQSHPGETPILVRVVSTNYNQHAMVFFKGMGQNREIFEITLYGRTKELTSELKENFIRFSKSLGLPENHIVFPVPIDQCIDGSAWSHPQFEK
OUTPUT: 0.45 nM

INPUT: Next up: lipocalin mutein SEQ ID NO: 11 (designed binder, biotinylated by NHS chemistry for capture in SPR) QDSTSDLIPAPPLSKVPLQQNFQDNQFHGKWYVVGWAGNTLLREDKDPIKMQAIIYELKEDRSYNVTWVYFSEKKCNYHIETFVPGSQPGEFTLGTIKSYPGETPILVRVVSTNYNQHAMVFFKGVNQNREIFEIILYGRTKELTNELKENFIRFSKSLGLPENHIVFPVPIDQCIDGSAWSHPQFEK
OUTPUT: 0.08 nM
